Reference source for all entries: PubChem BioAssay (NCI)

Test system: HCT-116 colon
ASSAY_OVERVIEW: NCI tumour cell line growth inhibition, 48 h
OBSERVED_PROPERTY: TGI (µM)

MOLECULE	UNITS	RESULT_MODIFIER	EXPERIMENTAL_VALUE
O=C1NCC2(CCN(CC3COc4ccccc4O3)CC2)N1c1ccccc1 (centres undefined)	µM	>	100
COc1ccc(/C=C2\CC3C4CC=C5C[C@@H](N6CCCC6)CC[C@]5(C)C4CC[C@]3(C)[C@H]2O)cc1OC (some centres undefined)	µM	=	15.8
NC(=O)c1c(NC(=O)c2ccc(C(F)(F)F)cc2Cl)sc2c1CCC(=O)C2	µM	=	1.42
NC(=S)N/N=C1\CCc2ccccc2C1	µM	>	100
O=C(NCCc1nccs1)c1cnc2c(S)cccc2c1	µM	=	10.2
CCCOC(=O)C1C(c2ccc(OC)cc2)NC(c2ccc(OC)cc2)C(C(=O)OCCC)S1(=O)=O (centres undefined)	µM	>	100
CC(C)CC1CC2C(=O)N(c3ccccc3)C(=O)C2c2[nH]c3ccccc3c21 (centres undefined)	µM	=	34
Clc1nc(NC23CC4CC(CC(C4)C2)C3)nc(NC23CC4CC(CC(C4)C2)C3)n1	µM	>	100
N/N=C1\C(=O)N(c2ccc(Cl)c(Cl)c2)C(=O)C1C(=O)Nc1ccc(Cl)c(Cl)c1 (centres undefined)	µM	>	100

---

System: LOX IMVI melanoma
ASSAY_OVERVIEW: NCI tumour cell line growth inhibition, 48 h
OBSERVED_PROPERTY: TGI

SMILES_NOTATION	OBSERVED_PROPERTY	EXPERIMENTAL_VALUE
CCn1cnc(C[C@H](NC(=O)[C@@H](NC(=O)Nc2cc(C(F)(F)F)cc(C(F)(F)F)c2)C(C)(C)C)C(=O)OC)c1	TGI	> 10 µM
NC(N)=NS(=O)(=O)c1ccc(NCc2cccc3c(=O)c4ccc(Cl)cc4oc23)cc1	TGI	> 11.3 µM
COc1cc(Br)c(C=Nc2cccc3ccc(OS(=O)(=O)c4ccc([N+](=O)[O-])cc4)cc23)cc1OC	TGI	> 100 µM

---

Entries and their measured TGI follow.
Test system: IGROV1 ovarian
ASSAY_OVERVIEW: NCI tumour cell line growth inhibition, 48 h
OBSERVED_PROPERTY: TGI

MOLECULE	OBSERVED_PROPERTY	EXPERIMENTAL_VALUE
Nc1nc2cc(COc3ccc(C(=O)O)cc3)ccc2nc1-c1ccccc1	TGI	> 10 µM
C=CCN=C1NC(=O)C(CC(=O)Nc2ccc([N+](=O)[O-])cc2[N+](=O)[O-])S1 (stereo not given)	TGI	> 100 µM
COc1ccc(C)cc1NC(=S)N/N=C/c1ccco1	TGI	> 100 µM
C(#Cc1ccccc1C#Cc1cnccn1)c1cnccn1	TGI	> 47.9 µM
O=[N+]([O-])c1cc2c(ccc3ccccc32)o1	TGI	5.56 µM
C=C1C(=O)OC2/C=C(\CO)C3OC3C3OC3(C)CC(OC(=O)/C(=C/C)COC(C)=O)C12 (stereo not given)	TGI	29.5 µM
CC(C)(C)c1ccc(OCCCCCCCN2CCNCC2)cc1	TGI	3.66 µM
CC1(C)COC(c2cccc(C(=O)c3ccccc3)c2)=N1	TGI	> 100 µM
O=S(=O)([O-])c1ccc(C=Nc2ccccc2)c([O-])c1.O=S(=O)([O-])c1ccc(C=Nc2ccccc2)c([O-])c1.[Co+2]	TGI	> 100 µM
CCCCCCCCCCCCNC(=S)OCCCC	TGI	> 100 µM
O=C1C=C(c2ccccc2)NC1(c1ccccc1)c1cc(-c2ccccc2)[nH]c1-c1ccccc1 (stereo not given)	TGI	> 100 µM
COc1ccc(C)cc1-c1ccc(-c2cc(C)ccc2OC)o1	TGI	> 100 µM
CSc1nc2c(ncn2C2OC(CO)C(O)C(O)C2O)c(=O)n1C (stereo not given)	TGI	> 100 µM
CC(C)(C)C1CC[C@H](O)[C@H]([C@@H](O)CC2CC(=O)N(c3ccccc3)C(=O)C2)C1 (stereo not given in full)	TGI	> 100 µM
CC[P+](C)(C)CC	TGI	> 100 µM
C=Cc1c(-c2ccccc2)cnc2[nH]c3ccccc3c12	TGI	> 50 µM
c1ccc(CSCCC(SCc2ccccc2)SCc2ccccc2)cc1	TGI	> 10 µM
O=C1OC(=O)c2c1cc1cc3c(cc1c2-c1ccc2c(c1)OCO2)OCO3	TGI	> 100 µM
CCCCCCCCCCCCNCCCc1ccccc1	TGI	3.49 µM
CCCOC(=O)C1C(c2ccc(OC)cc2)NC(c2ccc(OC)cc2)C(C(=O)OCCC)S1(=O)=O (stereo not given)	TGI	> 100 µM
COc1ccc(/C=C2\CC3C4CC=C5C[C@@H](N6CCCC6)CC[C@]5(C)C4CC[C@]3(C)[C@H]2O)cc1OC (stereo not given in full)	TGI	21.4 µM
Cc1cc(N)c2cc(NC(=O)/C=C\c3ccccc3Cl)ccc2n1	TGI	3.07 µM
COc1cccc(-c2nc(N)c(C#N)c3c2CCS(=O)(=O)c2ccc(C)cc2-3)c1	TGI	> 100 µM
CC(C)CC1CC2C(=O)N(c3ccccc3)C(=O)C2c2[nH]c3ccccc3c21 (stereo not given)	TGI	61.9 µM
c1ccc2c(c1)n1c(N3CCCC3)[n+]3ccccc3c1c1c3cccc[n+]3c(N3CCCC3)n21	TGI	> 100 µM
